# Experimental target: T1, human pIgR extracellular domain (ECD) (human, UniProt P01833 19-638)
# T1 construct: also called hpIgR ECD
# T1 sequence (P01833 other isoform, or with tags, fused parts or gaps): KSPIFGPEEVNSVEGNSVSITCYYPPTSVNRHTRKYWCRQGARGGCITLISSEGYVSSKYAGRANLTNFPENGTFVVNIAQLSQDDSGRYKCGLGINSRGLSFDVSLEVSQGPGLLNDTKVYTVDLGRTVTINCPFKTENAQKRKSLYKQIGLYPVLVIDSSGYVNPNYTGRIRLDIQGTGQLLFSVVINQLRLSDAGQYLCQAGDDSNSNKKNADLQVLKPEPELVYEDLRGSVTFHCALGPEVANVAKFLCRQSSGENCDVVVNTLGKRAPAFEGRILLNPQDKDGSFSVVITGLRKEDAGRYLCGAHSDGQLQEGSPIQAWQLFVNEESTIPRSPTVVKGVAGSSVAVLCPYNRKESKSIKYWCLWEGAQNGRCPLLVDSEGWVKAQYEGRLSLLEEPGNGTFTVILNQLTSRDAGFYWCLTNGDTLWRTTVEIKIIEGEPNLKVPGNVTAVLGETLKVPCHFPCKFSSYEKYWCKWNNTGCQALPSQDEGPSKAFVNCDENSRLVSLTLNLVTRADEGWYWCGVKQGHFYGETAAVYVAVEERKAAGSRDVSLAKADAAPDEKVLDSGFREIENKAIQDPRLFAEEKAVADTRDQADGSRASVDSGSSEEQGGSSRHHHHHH
# Method description: ECL (MSD), hpIgR-ECD coated, anti-VHH detection
pEC50: −log10 of the molar value.

Binder	pEC50
VHH6-linker-mono-Fc protein (Fc fusion, made in CHO cells; also called VHH6-mono-Fc; hpIgR_181) EVQLVESGGGLVQAGGSLRLSCAVSGSSVSSDAMGWYRQAPGNQRAWVAFISGGGTTTYADSVKGRFTISRDNTKNTVYLHMNSLKPEDTAVYYCNHPLTSRWGQGTQVTVSSEPKTPKPQPQPQLQPQPNPTTESKSPKSPAPELLGGPSVFLFPPKPKDTLMISRTPEVTCVVVDVSHEDPEVKFNWYVDGVEVHNAKTKPREEQYNSTYRVVSVLTVLHQDWLNGKEYKCKVSNKALPAPIEKTISKAKGQPREPQVYTKPPSREEMTKNQVSLSCLVKGFYPSDIAVEWESNGQPENNYKTTVPVLDSDGSFRLASYLTVDKSRWQQGNVFSCSVMHEALHNHYTQKSLSLSPGK	5.38
VHH9-linker-mono-Fc protein (Fc fusion, made in CHO cells; also called VHH9-mono-Fc; hpIgR_221) QVQLVESGGGLVQAGGSLRLSCAVSGRTFSTYRMGWFRQAPGKERSFVAAISWSGGSTTYADPVKGRFTISRDNAKNTVYLRMNSLKPEDTAVYYCNDQRGYWGQGTLVTVSSEPKTPKPQPQPQLQPQPNPTTESKSPKSPAPELLGGPSVFLFPPKPKDTLMISRTPEVTCVVVDVSHEDPEVKFNWYVDGVEVHNAKTKPREEQYNSTYRVVSVLTVLHQDWLNGKEYKCKVSNKALPAPIEKTISKAKGQPREPQVYTKPPSREEMTKNQVSLSCLVKGFYPSDIAVEWESNGQPENNYKTTVPVLDSDGSFRLASYLTVDKSRWQQGNVFSCSVMHEALHNHYTQKSLSLSPGK	9.10
VHH4-linker-mono-Fc protein (Fc fusion, also called VHH4-mono-Fc; hpIgR_073) EVQVVESGGGLVQAGGSLRLSCAVSGTSVSSNAMGWYRQAPGKQREWVGFIDRIATTTIATSVKGRFAITRDNAKNTVYLQMSGLKPEDTAVYYCNHPLTARWGQGTQVTVSSEPKTPKPQPQPQLQPQPNPTTESKSPKSPAPELLGGPSVFLFPPKPKDTLMISRTPEVTCVVVDVSHEDPEVKFNWYVDGVEVHNAKTKPREEQYNSTYRVVSVLTVLHQDWLNGKEYKCKVSNKALPAPIEKTISKAKGQPREPQVYTKPPSREEMTKNQVSLSCLVKGFYPSDIAVEWESNGQPENNYKTTVPVLDSDGSFRLASYLTVDKSRWQQGNVFSCSVMHEALHNHYTQKSLSLSPGK	6.69
VHH7-linker-mono-Fc protein (Fc fusion, made in CHO cells; also called VHH7-mono-Fc; hpIgR_198) EVQVVESGGGLVQAGGSLRLACVASRSIGSINVMGWYRQAPGKQRDLVARITGGGSTHYAESVKGRFTISRDNAKNTVYLQMNSLEPEDTAVYYCASMVNPIITAWGTIGVREIPDYDYWGQGTQVTVSSEPKTPKPQPQPQLQPQPNPTTESKSPKSPAPELLGGPSVFLFPPKPKDTLMISRTPEVTCVVVDVSHEDPEVKFNWYVDGVEVHNAKTKPREEQYNSTYRVVSVLTVLHQDWLNGKEYKCKVSNKALPAPIEKTISKAKGQPREPQVYTKPPSREEMTKNQVSLSCLVKGFYPSDIAVEWESNGQPENNYKTTVPVLDSDGSFRLASYLTVDKSRWQQGNVFSCSVMHEALHNHYTQKSLSLSPGK	7.51
